tested_on: T1, human PTH1R on Saos-2 cells (endogenous) (human, UniProt Q03431 27-593)
T1 sequence (looked up): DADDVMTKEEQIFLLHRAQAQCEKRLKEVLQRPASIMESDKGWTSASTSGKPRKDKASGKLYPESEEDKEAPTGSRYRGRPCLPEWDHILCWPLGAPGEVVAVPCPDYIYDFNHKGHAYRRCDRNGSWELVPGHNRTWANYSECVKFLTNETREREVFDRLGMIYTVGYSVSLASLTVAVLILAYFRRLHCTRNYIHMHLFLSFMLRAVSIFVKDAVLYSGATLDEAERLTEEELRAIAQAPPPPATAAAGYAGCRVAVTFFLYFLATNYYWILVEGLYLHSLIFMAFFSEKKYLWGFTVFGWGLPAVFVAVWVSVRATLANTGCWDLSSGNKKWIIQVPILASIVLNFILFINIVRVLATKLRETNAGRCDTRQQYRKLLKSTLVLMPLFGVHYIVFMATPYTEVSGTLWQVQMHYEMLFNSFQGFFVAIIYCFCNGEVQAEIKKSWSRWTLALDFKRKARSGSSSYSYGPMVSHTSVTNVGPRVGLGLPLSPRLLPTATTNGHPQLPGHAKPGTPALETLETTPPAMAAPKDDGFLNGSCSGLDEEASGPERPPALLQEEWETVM
experiment: cell-based or functional assay
measured_property: EC50 of PTH(1-34), cAMP assay, with 267 nM IgG (nM)
Your answer is read as nM, so omit the unit and give the number.

What the record says about XPA.85.340 (antibody, V domains shown, Light-chain-shuffled variant of XPA.85.017) VH: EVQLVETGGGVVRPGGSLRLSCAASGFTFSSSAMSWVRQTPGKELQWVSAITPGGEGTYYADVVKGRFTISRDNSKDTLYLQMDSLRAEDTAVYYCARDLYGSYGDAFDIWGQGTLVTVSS VL: SYVLTQPPSVSVAPGQTASITCSGDNLGEKFVSWYQQKAGQSPVLVIFEDNKRPSGIPERFAGSNSGNRATLTIRGTQAEDEADYYCQAWDSSWVFGGGTQLTVL : EC50 of PTH(1-34), cAMP assay, with 267 nM IgG is 4.17
